Data provenance is ChEMBL document CHEMBL3877247.

Exercise: for every item that follows, state its recorded EC50.
- System: Human alphaherpesvirus 3
- PROTOCOL SUMMARY: Antiviral activity against thymidine kinase deficient Varicella-Zoster virus 07-1 infected in HEL cells assessed as inhibition of virus plaque formation
- Assay type: functional, cell-based
- CONDITION DETAILS: Human alphaherpesvirus 3, 07-1, HEL

>>> df
                                smiles_code  readout         result
0  CC(=O)N(CCc1cn(C)c2ccccc12)Cc1ccc2ccccc2c1     EC50         > 4 µM
1          COc1ccc(CNCCc2cn(C)c3ccccc23)cc1     EC50        > 20 µM
2          Cn1cc(CCNCc2ccc(Cl)cc2)c2ccccc21     EC50         > 4 µM
3  Cn1cc(CCN(CCc2ccc(-c3ccccc3)cc2)C(=O)CCN2CCOCC2)c2ccccc21     EC50         > 4 µM
4  CCCn1cc(CNCCc2ccc(-c3ccccc3)cc2)c2cc(CNc3ccc(Cl)cc3)ccc21     EC50         > 4 µM
5  CC(=O)N(CCc1cn(C)c2ccccc12)Cc1ccc(Oc2ccccc2)cc1     EC50         > 4 µM
6  Cn1cc(CCN(CCc2ccc(-c3ccccc3)cc2)C(=O)C2CCCCC2)c2ccccc21     EC50         > 4 µM
7  CC(=O)N(CCc1ccc(-c2ccccc2)cc1)CCc1cn(C)c2ccccc12     EC50  1.7 to 3.1 µM
8  CC(=O)N(CCc1cn(C)c2ccccc12)c1ccc2ccccc2c1     EC50         > 4 µM

Now examine the next entry.
The reported value for "Cn1cc(CCN(CCc2ccc(-c3ccccc3)cc2)C(=O)OC(C)(C)C)c2ccccc21" in terms of EC50 is > 4 µM
